B1: library; numbered along this chain (parent)
chain: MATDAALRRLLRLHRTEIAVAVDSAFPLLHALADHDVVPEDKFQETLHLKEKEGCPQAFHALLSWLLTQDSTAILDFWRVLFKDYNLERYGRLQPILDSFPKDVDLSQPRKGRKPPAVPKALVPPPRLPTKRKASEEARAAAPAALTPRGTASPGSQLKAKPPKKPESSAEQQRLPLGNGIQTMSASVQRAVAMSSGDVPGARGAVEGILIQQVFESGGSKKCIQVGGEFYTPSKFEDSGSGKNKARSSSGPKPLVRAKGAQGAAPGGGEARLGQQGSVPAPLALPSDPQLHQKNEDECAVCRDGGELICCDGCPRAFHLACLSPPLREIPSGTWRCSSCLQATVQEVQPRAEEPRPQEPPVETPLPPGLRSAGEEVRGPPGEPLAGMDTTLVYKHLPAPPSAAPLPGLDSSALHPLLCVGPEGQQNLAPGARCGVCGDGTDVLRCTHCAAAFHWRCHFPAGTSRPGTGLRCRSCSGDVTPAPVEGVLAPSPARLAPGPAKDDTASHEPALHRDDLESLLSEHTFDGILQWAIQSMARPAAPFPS

Variants of: B1
Test: AIRE transcriptional activation functional score (insulin promoter-GFP; nonsense median 0, synonymous median 1) (normalised score); higher = higher AIRE activity (more reporter activation)
Details: with insulin promoter-GFP reporter in HEK293
So I've got a bunch of variants here, and I need their AIRE transcriptional activation functional score values.
# answer = number (no unit)

Exercise: Please look up its AIRE transcriptional activation functional score: "R12T"
Key: -0.393

Exercise: Please look up its AIRE transcriptional activation functional score: "A61H"
Key: 1.26

Exercise: Please look up its AIRE transcriptional activation functional score: "A140Q"
Key: 0.908

Exercise: Please look up its AIRE transcriptional activation functional score: "R473H"
Key: -0.49

Exercise: Please look up its AIRE transcriptional activation functional score: "L428T"
Key: 0.817

Exercise: Please look up its AIRE transcriptional activation functional score: "L81V"
Key: -0.437

Exercise: Please look up its AIRE transcriptional activation functional score: "A540H"
Key: 0.844

Exercise: Please look up its AIRE transcriptional activation functional score: "P325W"
Key: 0.913

Exercise: Please look up its AIRE transcriptional activation functional score: "A142F"
Key: 1.16

Exercise: Please look up its AIRE transcriptional activation functional score: "D41T"
Key: 0.827

Exercise: Please look up its AIRE transcriptional activation functional score: "L122V"
Key: 0.859

Exercise: Please look up its AIRE transcriptional activation functional score: "L414K"
Key: 0.634

Exercise: Please look up its AIRE transcriptional activation functional score: "V123N"
Key: 1.03

Exercise: Please look up its AIRE transcriptional activation functional score: "A300F"
Key: 1.57

Exercise: Please look up its AIRE transcriptional activation functional score: "K50L"
Key: 0.404

Exercise: Please look up its AIRE transcriptional activation functional score: "Q262V"
Key: 0.657

Exercise: Please look up its AIRE transcriptional activation functional score: "D23N"
Key: -0.303

Exercise: Please look up its AIRE transcriptional activation functional score: "G197S"
Key: 1.12

Exercise: Please look up its AIRE transcriptional activation functional score: "N86P"
Key: 0.153

Exercise: Please look up its AIRE transcriptional activation functional score: "H454D"
Key: 0.289

Exercise: Please look up its AIRE transcriptional activation functional score: "G178Q"
Key: 0.33

Exercise: Please look up its AIRE transcriptional activation functional score: "T68L"
Key: 0.729

Exercise: Please look up its AIRE transcriptional activation functional score: "R127I"
Key: 0.611

Exercise: Please look up its AIRE transcriptional activation functional score: "E508Y"
Key: 0.92

Exercise: Please look up its AIRE transcriptional activation functional score: "A160V"
Key: 1.38

Exercise: Please look up its AIRE transcriptional activation functional score: "G240E"
Key: 0.406

Exercise: Please look up its AIRE transcriptional activation functional score: "L177Q"
Key: 0.719

Exercise: Please look up its AIRE transcriptional activation functional score: "E485H"
Key: 0.537

Exercise: Please look up its AIRE transcriptional activation functional score: "Y394L"
Key: 1.07

Exercise: Please look up its AIRE transcriptional activation functional score: "L158I"
Key: 0.959

Exercise: Please look up its AIRE transcriptional activation functional score: "L291E"
Key: 0.759

Exercise: Please look up its AIRE transcriptional activation functional score: "S156Y"
Key: 0.901

Exercise: Please look up its AIRE transcriptional activation functional score: "S241L"
Key: 1.17

Exercise: Please look up its AIRE transcriptional activation functional score: "A493V"
Key: 1.1

Exercise: Please look up its AIRE transcriptional activation functional score: "K42L"
Key: 0.0963

Exercise: Please look up its AIRE transcriptional activation functional score: "E359Q"
Key: 0.92

Exercise: Please look up its AIRE transcriptional activation functional score: "K222S"
Key: 0.847

Exercise: Please look up its AIRE transcriptional activation functional score: "Q530F"
Key: -0.0468

Exercise: Please look up its AIRE transcriptional activation functional score: "K235R"
Key: 1.19

Exercise: Please look up its AIRE transcriptional activation functional score: "V104T"
Key: 0.284

Exercise: Please look up its AIRE transcriptional activation functional score: "D70Y"
Key: -0.642

Exercise: Please look up its AIRE transcriptional activation functional score: "K52L"
Key: 1.11

Exercise: Please look up its AIRE transcriptional activation functional score: "A258V"
Key: 1.36

Exercise: Please look up its AIRE transcriptional activation functional score: "R15W"
Key: 0.0452

Exercise: Please look up its AIRE transcriptional activation functional score: "P331K"
Key: 0.702

Exercise: Please look up its AIRE transcriptional activation functional score: "L291A"
Key: 0.566
